Assay: In Vivo Determination of Kp,uu,brain in Mice
Set-up: species or system mouse
Conditions: male, C57Bl/6, mouse, brain, po, 3 mg/kg, mouse, 3 mg/kg oral, 2 h; using fu,brain 0.0181; read-out: Unbound brain conc. (Cu,brain) ± SD
property name: concentration at 2 h (nM)

>>> reported_measurement("Nc1nc(Oc2c(F)cc(F)cc2F)cc(C(F)(F)F)n1")
17.6
